Every entry's value here was drawn from patent US5952307A.

- target_desc: human thrombin (Homo sapiens, UniProt P00734)
- Construct: bovine trypsin, human thrombin
- Format: biochemical
- measurement_conditions: Table II; 0.07 μM thrombin, 0.25-42 μM inhibitor, 80 mM Hepes pH 7.5, 428 mM NaCl, 8% DMSO, 25° C.; NI = no inhibition
- Procedure: Inactivation rates of serine proteases by aryl diesters of peptidyl derivatives of α-aminoalkylphosphonates were measured by the incubation method. […] Aliquots (50 μl) were withdrawn at various intervals and the residual enzymatic activity was measured. […] All peptide thioesters hydrolysis rates were measured with the assay mixture containing 4,4'-dithiodipyridine {ε324 =19800 M^-1 cm^-1; Grasetti & Murray, Arch. […] residual enzymatic activity was measured as described in experimental […]
property: kobs /[I] human thrombin (M⁻¹ s⁻¹)
Field: numeric (M⁻¹ s⁻¹). Do not append units.

Worked set:
| compound | kobs /[I] human thrombin / M⁻¹ s⁻¹ |
| --- | --- |
| COP(=O)(Oc1ccccc1)C(NC(=O)OCc1ccccc1)c1ccc(C(=N)N)cc1.Cl (centres unmarked) [Cbz-(4-AmPhGly)^P (OPh)(OMe)] | 41 |
| Cl.N=C(N)c1ccc(C(NC(=O)[C@@H]2CCCN2C(=O)OCc2ccccc2)P(=O)(Oc2ccccc2)Oc2ccccc2)cc1 (some centres unmarked) [Cbz--Pro-(4-AmPhGly)^P (OPh)2] | 640 |
| N=C(N)c1ccc(C(NC(=O)CNC(=O)OCc2ccccc2)P(=O)(Oc2ccccc2)Oc2ccccc2)cc1 (centres unmarked) [Cbz--Gly-(4-AmPhGly)^P (OPh)2] | 24 |
| CC(C)CC(N)C(=O)NC(C(=O)NC(c1ccc(C(=N)N)cc1)P(=O)(Oc1ccccc1)Oc1ccccc1)C(C)O (mixture of isomers) [Leu--Thr-(4-AmPhGly)^P (OPh)2] | 58 |
| N=C(N)c1ccc(C(NS(=O)(=O)c2cccc3ccccc23)P(=O)(Oc2ccccc2)Oc2ccccc2)cc1 (racemic) [1-NpSO2-(4-AmPhGly)^P (OPh)2] | 24 |
| CC(NC(=O)C(CCCCN)NC(=O)OCc1ccccc1)C(=O)NC(c1ccc(C(=N)N)cc1)P(=O)(Oc1ccccc1)Oc1ccccc1 (mixture of isomers) [Cbz--Lys--Ala-(4-AmPhGly)^P (OPh)2] | 180 |

The record that follows has no kobs /[I] human thrombin shown yet.
Lookup: Fill blank: measured kobs /[I] human thrombin of the compound CC(C)C(NC(=O)C(Cc1ccccc1)NC(=O)OC(C)(C)C)C(=O)NC(c1ccc(C(=N)N)cc1)P(=O)(Oc1ccccc1)Oc1ccccc1 (mixture of isomers) [Boc--D--Phe--Val-(4-AmPhGly)^P (OPh)2] is ____.
Found: 63
